conditions: buffer; pH 7.4; 200.0 µM
Kindly supply the reported log10(solubility kinetic) values for the records listed here.
Heads up: the numbers are on a log10 scale; they represent solubility kinetic in µg/mL.

Sample records with log10(solubility kinetic):
# Molecule, log10(solubility kinetic)
data = [
    ("Cc1cc(C)c(-c2nc3ccccc3s2)[nH]1", -0.10),
    ("CC(C)CC1NC(=O)N(CC(=O)Nc2ccc3c(c2)CCC3)C1=O (stereo unspecified)", 0.75),
    ("O=c1c2ccccc2nc(/C=C/c2c[nH]c3ccccc23)n1CCO", 0.93),
    ("Cc1c(NC(=O)Nc2ccc3c(c2)OCO3)cccc1[N+](=O)[O-]", -0.10),
    ("CC(=O)c1cccc(NC(=O)/C=C/c2ccc(S(=O)(=O)N3CCOCC3)cc2)c1", 0.71),
    ("COc1ccc(NC(=O)N2CCCc3cc(C)ccc32)c(OC)c1", 1.44),
    ("CC1CCC(NC(=O)c2cc(Cl)nc3ccccc23)CC1 (stereo unspecified)", 0.40),
]

With those in mind, consider the next molecule.
## Task Please give the documented log10(solubility kinetic) of O=C(OC(C(=O)c1c[nH]c2ccccc12)c1ccccc1)c1cnccn1 (stereo unspecified)
## Result 1.67

* * *

settings: buffer; pH 7.4; 200.0 µM
Task for the reader: assign each of the following molecules its reported solubility kinetic.
Numbers only, in µg/mL.

# Molecule, solubility kinetic / µg/mL
records = [
    ("CCC(=O)N1CCCC(C(=O)c2ccc(-c3ccccc3)cc2)C1 (stereo unspecified)", 29.9),
    ("COc1cc(/C=C/C(=O)OCC(=O)N2CCCc3ccccc32)ccc1O", 33.1),
    ("COc1ccc(-n2c(-c3ccc(Cl)cc3)c[nH]c2=S)cc1", 1.5),
]

Provide solubility kinetic values for the following items, in order.
1. COc1ccc(N(C)C(=O)Nc2ccc3nsnc3c2)cc1
2. CC(C)(C)C(=O)CSc1nc(N)cc(=O)[nH]1
3. C/C(=N\S(=O)(=O)c1ccc(C)cc1)NC(=S)Nc1ccccc1

## Result
1. 27.5
2. 33.1
3. 2.1

* * *

Assign log10(solubility kinetic) to each entry below.
settings: buffer; pH 7.4; 200.0 µM
Plainly stated, the numbers are log10 of solubility kinetic given in µg/mL.

Worked cases, answers included:
# Compound, Assay Result
data = [
    ("Clc1ccc(-c2csc(Nc3cccnc3)n2)cc1", -0.52),
    ("Cn1c(N)c(C(=O)COC(=O)c2cccc(S(=O)(=O)N3CCOCC3)c2)c(=O)n(C)c1=O", 1.30),
]

Required: log10(solubility kinetic), one value per compound below.
1. CCOCCCNC(=O)C1CC(=O)N(CCc2ccccc2)C1 (configuration not stated)
2. O=[N+]([O-])c1cccnc1Sc1ccc(Br)cc1
3. CNCC(=O)Nc1ccc(OC(F)(F)F)cc1.Cl
4. Cc1nc(-c2ccccc2OC(F)(F)F)[nH]c(=O)c1Cl

## Result
1.62
0.23
1.62
1.64

Dear reader, for each entry below, please note its log10(solubility kinetic).
1. CC1CCC(N(CCCN)Cc2ccco2)CC1C (configuration not stated)
2. O=C(O)C1CC(c2ccccc2)=Nc2ccccc2S1 (configuration not stated)

## Result
1. 1.50
2. 0.99

* * *

conditions: buffer; pH 7.4; 200.0 µM
Recorded Endpoint: solubility kinetic (µg/mL)
Numbers only, in µg/mL.

Worked examples, 5 compounds total:
# Compound, solubility kinetic (µg/mL)
rows = [
    ("CN(C)C(=O)Oc1ccc(NC(=O)N2CCOCC2)cc1", 43.9),
    ("CC(=O)Nc1ccc(S(=O)(=O)Nc2ccc3c(c2)CCC3)cc1", 4.2),
    ("O=C(c1ccc(Cl)cc1)N1CCc2c([nH]c3ccccc23)C1C(F)(F)F (centres undefined)", 1.4),
    ("Cc1nc(C)c(C(=O)OCC(=O)Nc2cccc(C)c2C)s1", 39.7),
    ("Cc1cc2ccccn2c1C(=O)c1ccc(F)cc1", 0.9),
]

Batch: solubility kinetic for all items listed.
1. Cc1onc(-c2c(F)cccc2Cl)c1C(=O)OCC(=O)N1C(C)CCCC1C (centres undefined)
2. CCOC(=O)c1oc2nc3c(cc2c1N)CCCC3
3. Cc1cccc(NC(=O)c2ccc(NCCO)c([N+](=O)[O-])c2)n1
4. COc1ccc(CNC(=O)CSc2nc3cccnc3s2)cc1
5. COc1ccccc1NS(=O)(=O)c1cccc2nsnc12
6. CCOc1ccc(C(=S)N2CCCC2)cc1OCC
7. S=C(NCc1cccs1)Nc1cc(Cl)cc(Cl)c1
8. COCCNC(=O)c1ccccc1NC(=O)CSc1ccc(C)cc1

## Result
[41.7, 10.4, 3.4, 36.3, 35, 41.8, 0.7, 36.6]

* * *

settings: buffer; pH 7.4; 200.0 µM
Recorded Endpoint: solubility kinetic

Recorded solubility kinetic, per entry:
# Compound, solubility kinetic
data = [
    ("CC(=O)Nc1ccc(NCc2ccc(C)s2)cc1", "> 39.1 µg/mL"),
    ("CC(=O)c1cn(CC(=O)Nc2ccccc2Cl)c2ccccc12", "1 µg/mL"),
    ("Cc1ccc(NC(=O)Cc2ncon2)cc1Cl", "> 37.8 µg/mL"),
    ("CCOc1ccc(NC(=O)N(C2CCCC2)C2CCN(C(C)=O)CC2)cc1", "> 56 µg/mL"),
    ("O=C(NC1CCSC1)c1cccc(Cl)c1 (stereo unspecified)", "> 36.3 µg/mL"),
]

Kindly review the next compound as well.
## Task Input `CNc1ccc([N+](=O)[O-])cc1-c1nc2ccccc2[nH]c1=O` , output reported solubility kinetic.
## Result 0.2 µg/mL

* * *

settings: buffer; pH 7.4; 200.0 µM
Can you tell me solubility kinetic for the items I'm about to list?

Example molecules with recorded solubility kinetic:
# Molecule, Assay Result
records = [
    ("CNC(=O)CN1C(=O)NC2(CCc3ccccc3C2)C1=O (stereo unspecified)", "> 43.1 µg/mL"),
    ("O=C(O)/C=C/C(=O)Nc1cc(F)ccc1F", "> 34.1 µg/mL"),
    ("COc1ccccc1C(=O)COC(=O)CN1C(=O)c2ccccc2C1=O", "6.4 µg/mL"),
    ("CCCN=C1CC(C)(C)CC(=O)/C1=C(/O)CCC", "37.5 µg/mL"),
]

Provide solubility kinetic for all items below, preserving their order.
1. COc1ccc(N2CCN(c3ccc(NC(=O)/C=C\C(=O)O)cc3)CC2)cc1
2. CCc1sc(C(=O)Nc2ccc(OC)c(S(=O)(=O)N3CCOCC3)c2)cc1C

## Result
1: > 57.2 µg/mL; 2: 22.9 µg/mL

* * *

conditions: buffer; pH 7.4; 200.0 µM
Recorded Endpoint: log10 solubility kinetic (log10 of the value in mg/mL)
Note the log scale: values are log10 of solubility kinetic expressed in mg/mL.

# Structure String, log10 solubility kinetic
rows = [
    ("O=C(CN1C(=O)CCC1=O)Nc1nc(-c2ccc3ccccc3c2)cs1", -2.74),
    ("Cc1ccc2oc(C(=O)NCc3ncc(C)[nH]3)c(C)c2c1", -1.41),
    ("COc1ccc2oc(=O)c(C(=O)NCc3ccccc3)cc2c1", -3.15),
    ("COCc1cc(Sc2ccc(Cl)cc2)nc(C)n1", -1.40),
    ("COc1ccccc1CNc1ncccc1[N+](=O)[O-]", -2.89),
    ("O=Cc1cn(CC(=O)Nc2ccccc2)c2ccccc12", -2.39),
]

Please look at the following molecule next.
## Task Give the measured log10 solubility kinetic for `Fc1ccc(CNCc2ccco2)cc1`
## Result -1.93

* * *

conditions: buffer; pH 7.4; 200.0 µM
The label depends only on solubility kinetic: satisfied if it is at least 30 µg/mL, not satisfied if it is smaller.

# Compound, Cat
records = [
    ("O=C(NCc1ccccc1)C12CC3CC(CC(Br)(C3)C1)C2", "not satisfied"),
]

## Task # bool: solubility kinetic of `O=C(COC(=O)C12CC3CC(CC(Cl)(C3)C1)C2)N1CCCCC1` >= 30 µg/mL
## Result not satisfied

## Task Quick check, solubility kinetic >= 30 µg/mL? `COc1cc2ccccc2cc1C(=O)N1CCCC1`
## Result satisfied

* * *

settings: buffer; pH 7.4; 200.0 µM
For each entry below, report its solubility kinetic value.

# Compound, Recorded Endpoint, Assay Result
measured = [
    ("COc1ccc(OC)c(NC(=O)NC2CCCc3ccccc32)c1 (centres undefined)", "solubility kinetic", "0.7 µg/mL"),
]

Consider the following items and state reported solubility kinetic for each.
1. COc1cccc(CNc2ccc(N3CCCCC3)cc2)c1OC
2. CCOC(=O)C1=C(C)NC(=O)NC1c1ccc([N+](=O)[O-])o1 (centres undefined)
3. O=C1CCN(Cc2nc(-c3ccc(Cl)cc3)no2)CCN1
4. O=C(Nc1ccncc1Cl)c1ccncc1
5. O=C(C1CCCN1S(=O)(=O)c1ccc(Cl)cc1)N1CCN(c2ccccc2)CC1 (centres undefined)
6. CCNC(=O)C12CCC(C)(c3nc4cc(C)c(C)cc4nc31)C2(C)C (centres undefined)

## Result
["39.5 µg/mL", "42.7 µg/mL", "> 46 µg/mL", "> 35 µg/mL", "15.3 µg/mL", "47.4 µg/mL"]

Here are 6 compounds. What values of solubility kinetic were reported for them?
1. Cc1cccc(CCNCc2cc3ccc(C)cc3[nH]c2=O)c1
2. CC1(C)CSC(=NCCc2ccccc2)N1
3. Nc1ccccc1C(=O)NCCN1CCNC1=O
4. Cc1ccccc1N=C1NC(=O)/C(=C/c2cccn2C)S1
5. COc1ccccc1CNC(=O)C(=O)Nc1nccs1
6. CN(C(=O)c1ccc2nccnc2c1)C1CCCCC1

## Result
1. 45.4 µg/mL
2. > 35.2 µg/mL
3. 14.2 µg/mL
4. 3.3 µg/mL
5. 6 µg/mL
6. > 40.4 µg/mL

Please state solubility kinetic for every compound in the list that follows.
1. COc1cc(OC)cc(C(=O)N[C@H](C(=O)OCC(=O)Nc2ccc3c(c2)OCO3)C(C)C)c1
2. CCOC(=O)C(C)Oc1c(C(=O)OC)sc2ncccc12 (centres undefined)
3. Cc1ccnc(NC(=O)CCC(=O)c2cccs2)c1
4. C=CCOC(=O)c1sc(NC(=O)c2ccc(OC)cc2)nc1C

## Result
21.2 µg/mL
38.2 µg/mL
> 41.2 µg/mL
< 0.4 µg/mL

Taken from PubChem BioAssay AID1996.
